Origin of values: ChEMBL document CHEMBL3433997

The following molecules are listed with their measured inhibition values.
molecular target: Glucose transporter (Leishmania mexicana); assay: ST_JUDE_LEISH: Cytotoxicity at 2uM final concentration against transgenic Leishmania Mexicana promastigotes LmGT2 that are glucose transport deficient and complemented with the L. Mexicana glucose transporter 2. Activity is measured by DNA content using SYBR green in vitro; assay type: functional
API: value field is a number in %; no unit string.

> print(dat)
                                   molecule  measured.parameter  display.unit  reading
1  COc1ccc(C(C(=O)NC2CCN(C[C@H](O)c3ccnc4ccc(OC)cc34)CC2)N2CCN(Cc3ccccc3)CC2)cc1 (stereo partly drawn)          inhibition             %    -0.21

Supply measured inhibition of "CS(=O)(=O)c1ccc(CNCc2ccc(-c3ccc(-c4nc5cc(C(F)(F)F)ccc5[nH]4)cc3)cc2)cc1" in your reply.
2.3

Determine its reported inhibition: CCCc1cc(N2CCC(N(CC)CC)C2)nc(Nc2ccc(OC)cc2)n1 (stereo not drawn)
1.91

Consider the molecule "COc1cc(CNC2Cc3ccccc3C2)ccc1Oc1ccc2nc[nH]c2c1" . State its measured inhibition.
0.95

Return value of inhibition for input "CCCN(Cc1nnc(-c2cccs2)o1)C(=O)CSc1nnnn1-c1cc(C)cc(C)c1" , no commentary.
2.71

Identify inhibition associated with the molecule "Nc1nc2c(ncn2OC[C@H]2COP(=O)(O)CO2)c(=O)[nH]1"
-1.54

Return reported inhibition. Input molecule: "CC(C)(C)c1ccc(-c2cc(C(=O)N[C@@H](CO)C(=O)O)on2)cc1.CC(C)(C)c1ccc(-c2nocc2C(=O)N[C@@H](CO)C(=O)O)cc1"
6.48

Using the record for "O=C(Nc1ccsc1)Nc1cccc(-c2cccc(-c3nc4cc(C(F)(F)F)ccc4[nH]3)c2)c1" , state its measured inhibition.
1.55

Complete the entry with inhibition for "COc1ccc2nccc([C@@H](O)CN3CCC(NCCOc4ccccc4[N+](=O)[O-])CC3)c2c1"
0.09

Answer with the recorded inhibition for the molecule listed here: Cc1cccc2nc(-c3cccc(-c4ccc(NC(=O)C5CCCO5)cc4)c3)[nH]c12 (stereo not drawn)
2.04

Provide inhibition value for the following molecule: "c1ccc(CCNCc2ccc(-c3ccc(CNC4CCN(Cc5ccccc5)CC4)cc3)nc2)cc1"
4.15

Give recorded inhibition. "O=C(Nc1ccnc(-c2cccnc2)n1)c1cc(C(F)(F)F)cc(C(F)(F)F)c1"
-3.85

Check the records and state inhibition for "CCc1ccc(NC(=O)c2ccc(CN3CCCN(Cc4cccc(Cl)c4)CC3)cc2)cc1"
2.29

Name the recorded inhibition of the item "Cn1cnc2c(Nc3ccncc3)nc(-c3ccc(OC(F)(F)F)cc3)nc21" in your answer.
2.19

Please supply the value of reported inhibition for the item CN1CCC(Oc2ccc(CN3CC[C@H](NC(=O)c4ccc(Cl)c(Cl)c4)C3)cc2Cl)C1 (stereo partly drawn)
3.89

Name the recorded inhibition of the molecule listed here: "COC(=O)c1ccc(NC(=O)Nc2ccc(Cn3ncc(N4CCCNCC4)c(Cl)c3=O)cc2)cc1"
-0.5

###

Listed molecules paired with reported inhibition
molecular target: Hexose transporter 1 (Plasmodium falciparum) (UniProt O97467); experiment: ST_JUDE_LEISH: Cytotoxicity at 2uM final concentration against transgenic Leishmania Mexicana promastigotes LmPfHT that are glucose transport deficient and complemented with the Plasmodium falciparum hexose transporter. Activity is measured by DNA content using SYBR green in vitro; assay type: functional
The figure you give is taken to be in %; do not add the unit.

// below: answered molecules
> print(dat)
                                   molecule  measured.parameter  reading
1  CC(C)NCc1ccc(-c2ccc(-c3nc4cc(F)ccc4[nH]3)cc2)cc1          inhibition     8.81
2  COc1cc(C(=O)N2CCN(C(C)C)CC2)ccc1CN(C)CCCCN1CCN(c2cccc(Cl)c2Cl)CC1          inhibition     1.73
3  CCN(CC)CCCN1CCN(C(=O)c2cccc(-c3noc(C(F)(F)F)n3)c2)CC1          inhibition     4.63
4  CN(C)C(=O)c1cccc(COc2ccc(N3C(N)=NC(N)=NC3(C)C)cc2Cl)c1          inhibition     1.77
5  Cc1ccc(C(NC(=O)C2CCCCC2)c2ccc3cccnc3c2O)cc1 (centres undefined)          inhibition      1.7
6  CC(C)c1ccc(OCC(O)CN(C)C(C)C(O)c2ccccc2)c(Br)c1 (centres undefined)          inhibition     12.5

For CCCC(C)Nc1nc(C)cc(N[C@@H](Cc2ccccc2)C(=O)NCCOc2ccccc2)n1 (some centres undefined) , write its inhibition.
3.26

Kindly indicate its recorded inhibition. Item: "Clc1ccc2c(NCc3ccccc3)ccnc2c1"
3

Provide inhibition value for the following molecule: "CCC[C@@H]([C@@H](CC1CCCCC1)C(=O)N[C@H](C(=O)Nc1nccc(N)n1)C(C)(C)C)N(O)C=O"
4.83

Please supply the value of reported inhibition for the item "CN(C(=O)Nc1ccc(C(F)(F)F)cc1)C1CCN(CCCCCNC(=O)/C=C/c2ccc(Cl)c(Cl)c2)CC1"
2.6

Given the molecule Cc1cc(N(C)C)nc(Nc2ccc(NC(=O)C(C)Oc3ccccc3)cc2)n1 (centres undefined) , write its reported inhibition.
14.5

Quick one: give measured inhibition for "O=C(Nc1cccc(CN2CCCN(Cc3ccc(O)cc3)CC2)c1)c1ccc2ccccc2n1"
2.83

Report inhibition, nothing else, for this molecule: "Nc1oc2c(CN3CCCCCC3)c(O)ccc2c(=O)c1-c1nc2ccccc2s1"
6.76

Supply recorded inhibition for CC1CCc2c(C(=O)N3CCc4ccccc4C3)csc2C1 (centres undefined) here.
0.87

Quick one: give measured inhibition for "CS(=O)(=O)Cc1cccc(Nc2ncc(Cl)c(Nc3cccnc3C(N)=O)n2)c1"
12.6

Identify measured inhibition corresponding to "Cc1cnc(Nc2cccc(CCN3CCOCC3)c2)nc1NC(C)C"
9.73

Name the recorded inhibition of the molecule listed here: "CCCCc1nc2nc(N)nc(N)c2cc1CCC"
6.46

Give a short answer stating reported inhibition for "Clc1ccc(CNC2CCN(CC3CCCCC3)CC2)cc1" .
11.2

Give the measured inhibition for O=C(Nc1ccc(OC2CCN(Cc3ccc(F)cc3)C2)c(Cl)c1)c1ccccc1 (centres undefined)
9.58
